System: A498
Test: Growth inhibition of human A498 cells after 48 hrs by sulforhodamine B assay
Assay type: functional, cell-based
Conditions: A498, 48 h
PARAMETER_MEASURED: TGI (µM)
State the answer as a number, implicitly in µM.

COc1cc(-c2nn(-c3cccc(NC(=O)Nc4ccc(Cl)c(C(F)(F)F)c4)c3)cc2-c2ccncc2)ccc1Cl    6.97
COc1cc(-c2nn(-c3cccc(NC(=O)c4ccc(N5CCOCC5)c(C(F)(F)F)c4)c3)cc2-c2ccncc2)ccc1Cl    1.08

# ---- query compound ----
Lab note: need TGI with A498 for entry COc1cc(-c2nn(-c3cccc(NC(=O)c4cccc(C(F)(F)F)c4)c3)cc2-c2ccncc2)ccc1Cl , please look it up.
2.78

====

Listed here are compounds together with their documented growth at 10 µM.
Tested on: T47D
Experiment: Growth inhibition of human T47D cells assessed as cell growth at 10 uM after 48 hrs by sulforhodamine B assay
Format: functional
Settings: read-out: Activity
State the answer as a number, implicitly in %.

Examples with answers:
COc1cc(-c2nn(-c3cccc(NC(=O)c4ccccc4)c3)cc2-c2ccncc2)ccc1Cl    21.8
COc1cc(-c2nn(-c3cccc(NC(=O)Nc4ccc(Cl)c(C(F)(F)F)c4)c3)cc2-c2ccncc2)ccc1Cl    0.62
O=C(Nc1cccc(-n2cc(-c3ccncc3)c(-c3ccc(Cl)c(O)c3)n2)c1)Nc1ccc(Cl)c(Cl)c1    23

# ---- query compound ----
What does the record list as growth at 10 µM for COc1cc(-c2nn(-c3cccc(NC(=O)c4ccc(Br)c(C)c4)c3)cc2-c2ccncc2)ccc1Cl ?
70.3

====

Listed here are molecules together with their documented TGI.
Test system: MDA-MB-468
Test: Growth inhibition of human MDA-MB-468 cells after 48 hrs by sulforhodamine B assay
Assay type: functional, cell-based
Settings: MDA-MB-468, 48 h
State the answer as a number, implicitly in nM.

Examples with answers:
COc1cc(-c2nn(-c3cccc(NC(=O)Nc4cccc(C(F)(F)F)c4)c3)cc2-c2ccncc2)ccc1Cl    2160
COc1cc(-c2nn(-c3cccc(NC(=O)c4cccc(C(F)(F)F)c4)c3)cc2-c2ccncc2)ccc1Cl    4560
COc1cc(-c2nn(-c3cccc(NC(=O)c4ccc(N5CCOCC5)c(C(F)(F)F)c4)c3)cc2-c2ccncc2)ccc1Cl    781

# ---- query molecule ----
What does the record list as TGI for O=C(Nc1cccc(-n2cc(-c3ccncc3)c(-c3ccc(Cl)c(O)c3)n2)c1)Nc1ccc(Cl)c(C(F)(F)F)c1 ?
1750

====

Tested on: RXF 393
Test: Growth inhibition of human RXF393 cells after 48 hrs by sulforhodamine B assay
Format: functional
Settings: RXF 393, 48 h
Listed here are compounds together with their documented GI50.
State the answer as a number, implicitly in nM.

What does the record list as GI50 for O=C(Nc1cccc(-n2cc(-c3ccncc3)c(-c3ccc(Cl)c(O)c3)n2)c1)Nc1cccc(C(F)(F)F)c1 ?
3020

====

Listed here are compounds together with their documented growth at 10 µM.
System: TK-10
Test: Growth inhibition of human TK10 cells assessed as cell growth at 10 uM after 48 hrs by sulforhodamine B assay
Format: functional
Settings: TK-10, 48 h, read-out: Activity
State the answer as a number, implicitly in %.

O=C(Nc1cccc(-n2cc(-c3ccncc3)c(-c3ccc(Cl)c(O)c3)n2)c1)Nc1ccc(Cl)c(Cl)c1    7.15
COc1cc(-c2nn(-c3cccc(NC(=O)c4cccc(C(F)(F)F)c4)c3)cc2-c2ccncc2)ccc1Cl    8.08
Cc1cc(C(=O)Nc2cccc(-n3cc(-c4ccncc4)c(-c4ccc(Cl)c(O)c4)n3)c2)ccc1Br    113
O=C(Nc1cccc(-n2cc(-c3ccncc3)c(-c3ccc(Cl)c(O)c3)n2)c1)c1ccccc1    109
COc1cc(-c2nn(-c3cccc(NC(=O)Nc4cc(C(F)(F)F)cc(C(F)(F)F)c4)c3)cc2-c2ccncc2)ccc1Cl    -26.7

What does the record list as growth at 10 µM for COc1cc(-c2nn(-c3cccc(NC(=O)Nc4cccc(C(F)(F)F)c4)c3)cc2-c2ccncc2)ccc1Cl ?
2.65

What does the record list as growth at 10 µM for COc1cc(-c2nn(-c3cccc(NC(=O)c4ccc(Br)c(C)c4)c3)cc2-c2ccncc2)ccc1Cl ?
91.3
